What follows is a collection of pIC50 values obtained with Tyrosine-protein kinase JAK1 (Homo sapiens, UniProt P23458).
Sequence (P23458 whole entry): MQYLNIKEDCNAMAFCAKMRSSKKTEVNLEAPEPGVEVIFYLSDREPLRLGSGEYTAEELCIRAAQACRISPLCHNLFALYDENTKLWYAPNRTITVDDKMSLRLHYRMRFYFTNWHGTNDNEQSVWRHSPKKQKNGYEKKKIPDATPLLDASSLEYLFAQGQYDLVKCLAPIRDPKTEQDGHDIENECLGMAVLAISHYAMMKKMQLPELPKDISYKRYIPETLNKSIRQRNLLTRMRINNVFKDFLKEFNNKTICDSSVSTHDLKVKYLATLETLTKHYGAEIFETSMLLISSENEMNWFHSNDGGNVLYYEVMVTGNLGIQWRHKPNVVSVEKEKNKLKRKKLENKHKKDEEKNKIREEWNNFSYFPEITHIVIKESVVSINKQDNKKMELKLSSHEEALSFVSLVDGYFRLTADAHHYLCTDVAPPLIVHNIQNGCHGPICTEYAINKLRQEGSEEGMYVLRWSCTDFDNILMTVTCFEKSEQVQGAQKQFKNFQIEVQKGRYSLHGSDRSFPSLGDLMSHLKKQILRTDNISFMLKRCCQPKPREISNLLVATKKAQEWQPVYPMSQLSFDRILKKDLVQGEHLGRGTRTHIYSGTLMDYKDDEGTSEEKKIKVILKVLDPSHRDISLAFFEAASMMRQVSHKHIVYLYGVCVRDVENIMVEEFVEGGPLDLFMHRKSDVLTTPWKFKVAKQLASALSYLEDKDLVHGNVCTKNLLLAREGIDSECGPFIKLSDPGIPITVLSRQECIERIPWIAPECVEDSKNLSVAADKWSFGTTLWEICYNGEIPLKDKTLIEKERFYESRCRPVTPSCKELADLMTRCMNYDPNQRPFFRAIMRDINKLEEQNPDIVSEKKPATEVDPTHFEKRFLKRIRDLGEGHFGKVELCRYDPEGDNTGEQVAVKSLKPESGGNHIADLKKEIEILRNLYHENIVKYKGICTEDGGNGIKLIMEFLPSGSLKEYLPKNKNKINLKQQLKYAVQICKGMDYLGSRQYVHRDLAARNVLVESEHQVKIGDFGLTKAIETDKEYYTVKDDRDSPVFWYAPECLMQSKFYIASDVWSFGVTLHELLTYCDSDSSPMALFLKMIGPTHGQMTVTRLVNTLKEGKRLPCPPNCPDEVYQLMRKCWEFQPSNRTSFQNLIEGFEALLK
pIC50: −log10 of the molar value.

{"columns": ["Smiles Notation", "pIC50"],
 "data": [
  ["CCC(=O)c1cnc(Nc2cnc(OCCN3CCN(C)CC3)cn2)cc1Nc1cccc(-c2ncn(C)n2)c1OC", "< 6.30"]
]}

Pending compound:
Query: I have this compound here, CCC(=O)c1cnc(Nc2cnc(O[C@@H]3CCN(CC)C3)cn2)cc1Nc1cccc(-c2ncn(C)n2)c1OC , and I need its recorded pIC50.
Response: < 6.30

* * *

What follows is a collection of pIC50 values obtained with Tyrosine-protein kinase JAK3 (Homo sapiens).
Sequence (P52333 whole entry): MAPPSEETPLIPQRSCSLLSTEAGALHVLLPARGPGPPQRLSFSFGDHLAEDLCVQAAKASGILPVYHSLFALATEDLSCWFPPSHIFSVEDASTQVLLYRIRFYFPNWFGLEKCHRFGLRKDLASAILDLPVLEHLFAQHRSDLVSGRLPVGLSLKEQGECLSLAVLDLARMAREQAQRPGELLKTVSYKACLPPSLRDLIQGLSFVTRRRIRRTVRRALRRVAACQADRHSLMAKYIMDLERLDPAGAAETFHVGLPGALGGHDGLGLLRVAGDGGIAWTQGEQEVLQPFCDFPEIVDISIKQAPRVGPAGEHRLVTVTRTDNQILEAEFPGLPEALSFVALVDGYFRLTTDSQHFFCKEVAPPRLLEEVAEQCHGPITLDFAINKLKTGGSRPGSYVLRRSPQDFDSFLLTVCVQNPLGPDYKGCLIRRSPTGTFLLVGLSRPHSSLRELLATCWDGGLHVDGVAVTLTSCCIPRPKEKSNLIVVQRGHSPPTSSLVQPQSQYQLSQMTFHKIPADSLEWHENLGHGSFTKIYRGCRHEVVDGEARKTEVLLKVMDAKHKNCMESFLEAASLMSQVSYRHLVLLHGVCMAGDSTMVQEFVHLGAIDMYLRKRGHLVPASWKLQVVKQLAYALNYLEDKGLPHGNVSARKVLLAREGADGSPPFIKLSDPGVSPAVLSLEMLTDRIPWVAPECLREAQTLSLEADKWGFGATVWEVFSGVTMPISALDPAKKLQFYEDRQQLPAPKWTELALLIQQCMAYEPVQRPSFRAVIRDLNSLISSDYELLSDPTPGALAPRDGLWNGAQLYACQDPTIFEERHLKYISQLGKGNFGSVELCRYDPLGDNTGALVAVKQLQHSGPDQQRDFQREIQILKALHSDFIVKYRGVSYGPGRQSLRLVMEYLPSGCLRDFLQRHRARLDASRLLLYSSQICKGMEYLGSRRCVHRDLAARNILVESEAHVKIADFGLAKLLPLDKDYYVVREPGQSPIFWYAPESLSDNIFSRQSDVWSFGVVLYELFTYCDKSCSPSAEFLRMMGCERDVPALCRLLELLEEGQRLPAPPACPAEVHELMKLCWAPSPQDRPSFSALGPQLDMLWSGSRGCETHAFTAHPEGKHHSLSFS
pIC50: −log10 of the molar value.

Query: I have this molecule here, CCC(=O)c1cnc(Nc2ccc(CN3CCN(C)CC3)nn2)cc1Nc1cccc(-c2ncn(C)n2)c1OC , and I need its recorded pIC50.
Response: < 6.30

Query: Please give the result for CCC(=O)c1cnc(Nc2cc(C(C)NC)ncn2)cc1Nc1cccc(-c2ncn(C)n2)c1OC (configuration not stated) too.
Response: < 6.30

The measurements presented in this section are drawn from BindingDB's records for patent US20230295119.
